# target_system: T1, DVL3, Q92997
# T1 sequence (Q92997 244-331, limits assumed, looked up): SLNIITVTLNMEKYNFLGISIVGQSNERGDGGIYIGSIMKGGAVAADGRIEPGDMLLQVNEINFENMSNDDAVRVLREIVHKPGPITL
# test_summary: holdup assay
# Set-up: key: below the threshold = too weak to quantify, mostly under pKd 3.1 to 4
# assay_setup: plain residues with an end cap or a label only (N-terminal biotin on a linker: ado-ado)
measurement_name: pKd

QKNKDKEYYV [NRXN3_rs746444206, Q9Y4C0] : 3.85
FVHPILQSAV [PRKCA, P17252] : below the threshold
TETASVCTKV [SLC23A1, Q9UHI7] : below the threshold
EEPEERHTEL [CES2, O00748] : below the threshold
